# methodDescription: melting temperature; fluorescence melt of hairpins on a sequencing array, two-state fit, raised by 9.35 °C to match UV melts
# testContext: sodium 0.088 M
metric: Tm (°C)
Please give a number only; it is taken to be in °C.

Challenge: // Tm lookup, key: GATCACAAATGTGATC ((((((....))))))
Response given: 55.5

Challenge: // Tm lookup, key: GCGATGCGAAAGCGTAGC ((.(.((....)).).))
Response given: 54.8

Challenge: // Tm lookup, key: GCAAACGGAAACGTTTAC (.(((((....))))).)
Response given: 38.4

Challenge: // Tm lookup, key: GTGGGCGAAAGCCGCAC ((((((....))).)))
Response given: 55.4

Challenge: // Tm lookup, key: GTTAAGCCGAAAGGCAAC (((..(((....))))))
Response given: 32.9

Challenge: // Tm lookup, key: GCAAATCCGAAAGGATGC (((..(((....))))))
Response given: 47.8

Challenge: // Tm lookup, key: GGAATCCGAAAGGATCC (((.(((....))))))
Response given: 50

Challenge: // Tm lookup, key: GCTCGTGGAAACACAAGC (((.(((....))).)))
Response given: 43.9

Challenge: // Tm lookup, key: GATCACGCTGGTGATC ((((((....))))))
Response given: 58.2

Challenge: // Tm lookup, key: GAGGGCGGAAACGCTCTC (((.(((....))).)))
Response given: 57.2

Challenge: // Tm lookup, key: CGCGTGCGGAAACGCGCG (((..(((....))))))
Response given: 66.1

Challenge: // Tm lookup, key: GCCGTGCGAAAGCGGGGC (((..((....))..)))
Response given: 67.3
